Reported inhibition values for a set of molecules
test: TNF-a-driven NF-kB reporter inhibitors, primary screen, selectivity assay for NOD1/NOD2 signaling inhibitor project, cell-based, HEK293T NF-kB-Luc, luminescence (AID 1852); conditions: TNF-a induced, 14 h, at 4 µM, stronger effect = higher value
In all, about 2,500 compounds went through this assay and about 1,100 (44%) were called active. So high a share suggests a set chosen from earlier hits. This is one part of the list.

- molecule: "COc1cccc(N=Nc2c(N)[nH]n3c(=O)cc(-c4ccccc4)nc23)c1"
  inhibition: "75.4% (active)"
- molecule: "CC1=CC(C)(C)Nc2ccc(OC(=O)C(C)N3C(=O)c4ccccc4C3=O)cc21 (stereo not given)"
  inhibition: "40.1% (inactive)"
- molecule: "Cc1c(C)n(Cc2ccccc2)c2ncnc(Cl)c12"
  inhibition: "42.6% (inactive)"
- molecule: "COC(=O)c1ccc2c(c1O)C(=O)c1ccccc1C2=O"
  inhibition: "-53.2% (inactive)"
- molecule: "O=C(CCl)N1c2ccccc2OCC1c1ccccc1 (stereo not given)"
  inhibition: "62.2% (active)"
- molecule: "Cn1c(/C=C/c2ccc(Cl)cc2)c([N+](=O)[O-])c(=O)n(C)c1=O"
  inhibition: "18.7% (inactive)"
- molecule: "COc1cc(NC(=O)c2ccccc2NS(=O)(=O)c2ccc(Cl)s2)cc(OC)c1"
  inhibition: "84.9% (active)"
- molecule: "O=C(CN1CCN(Cc2ccccc2)CC1)N1N=CCC1c1ccccc1 (stereo not given)"
  inhibition: "21.7% (inactive)"
- molecule: "Cc1ccc2[nH]c3c(N4CCN(Cc5ccccc5)CC4)ncnc3c2c1"
  inhibition: "76.9% (active)"
- molecule: "O=C(Nc1ccccc1Cl)/C(Cl)=C(\\Cl)S(=O)c1ccccc1 (stereo not given)"
  inhibition: "107% (active)"
